Sourced from ChEMBL document CHEMBL4689842

Parameter: Population Mitotic Cells (%). Scope: all listed entries.
test system: U2OS; test: Multiplex assay against U2OS; format: toxicity, cell-based; details: human, 24 h, 1 µM, compound concentration 1 uM, replicate 2
State the answer as a number, implicitly in %.

Smiles data | Tgt | Units text | Population Mitotic Cells (%)
N#CCNC(=O)c1ccc(-c2ccnc(Nc3ccc(N4CCOCC4)cc3)n2)cc1 | U2OS | % | 33
C[C@@H](Oc1cc(-n2cnc3ccc(CN4CCN(C)CC4)cc32)sc1C(N)=O)c1ccccc1C(F)(F)F | U2OS | % | 50
Cc1c(Nc2ccc(S(=O)(=O)N3CCN(C)CC3)cc2F)nc2ccc(Nc3cnn(C4CC4)c3)cn2c1=O | U2OS | % | 57

Please turn your attention to the following entry.
Query `Cc1ccc(NC(=O)Nc2cc(C(F)(F)F)ccc2F)cc1Nc1ccc2c(c1)NC(=O)/C2=C\c1ccc[nH]1` on U2OS; Population Mitotic Cells (%) returned: 23
